- Read-out: Keratin 19 (KRT19), KRT19 (gene 3880)
- assay-text: LTEA_HepaRG_KRT19: Life Technologies and Expression Analysis (LTEA) Assay for Keratin 19 (KRT19) using HepaRG (AID 2283512)
- condition-context: mRNA level, 48 h; actives raise or lower the signal
Active and inactive are the calls of the source. How the source made its calls: active means hit-call score of the fitted dose curve at least 0.9, where 1 is the maximum; inactive means score below 0.9.
Write down the outcome that applies. Available outcomes: active, inactive

Input line: // param item: Nc1ccc(Oc2ccc(N)cc2)cc1 ; yields the recorded call
Output line: inactive

Input line: Recorded test call requested for Clc1ccccc1Cl
Output line: inactive

Input line: # fetch the recorded call for [Cl-].[Cl-].[Hg+2] here
Output line: active

Input line: Fill in: this test's call for Nc1ccc(Cl)cc1N is ___
Output line: active

Input line: Answer briefly: the call reported for C=CCc1ccc2c(c1)OCO2 in this assay.
Output line: inactive

Input line: What is the recorded call for this compound in the test? Brc1ccc(Oc2ccccc2)cc1
Output line: inactive

Input line: Please let me know the test result on file for CN(C)[C@@H]1C(=O)C(C(N)=O)=C(O)[C@@]2(O)C(=O)C3=C(O)c4c(O)cccc4[C@@](C)(O)[C@H]3C[C@@H]12 .
Output line: inactive

Input line: Query: recorded result category for [O-][Cl+]O in this test
Output line: inactive

Input line: Please indicate how the test categorized CCOC(=O)[C@]1(c2ccccc2)Oc2ccccc2[C@@H]1N .
Output line: inactive

Input line: Per the assay record, what outcome was assigned to CNC(=O)Oc1cccc2c1OC(C)(C)C2 ?
Output line: inactive

Input line: Kindly provide the recorded test outcome for the following compound: ClCCOCCCl
Output line: inactive

Input line: For [As]#[In] , which call appears in the assay record?
Output line: inactive

Input line: State the result this test recorded for Cc1ccc(N)c(N)c1 .
Output line: active

Input line: Test call for this compound, please: O=C(Nc1ccccc1)c1ccccc1I
Output line: active

Input line: For CCCSC(=O)N(CCC)CCC , which call appears in the assay record?
Output line: inactive

Input line: Test call, this compound: O=C(O)C1C2CCC(O2)C1C(=O)O (stereo not drawn)
Output line: active

Input line: Which outcome was entered for the compound CN(C)C(=O)Nc1ccc(Cl)cc1 in this test?
Output line: inactive

Input line: How was CCNS(=O)(=O)C(F)(F)C(F)(F)C(F)(F)C(F)(F)C(F)(F)C(F)(F)C(F)(F)C(F)(F)F classified in this test?
Output line: active

Input line: # lookup: test call for Cc1ccc([N+](=O)[O-])cc1
Output line: inactive

Input line: Query: recorded result category for CC(C)(C)OOC(C)(C)CCC(C)(C)OOC(C)(C)C in this test
Output line: inactive

Input line: What was the test verdict on CS(=O)(=O)NC(=O)c1cc(Oc2ccc(C(F)(F)F)cc2Cl)ccc1[N+](=O)[O-] ?
Output line: inactive

Input line: // return assay outcome for CC(C)(C)C(O)(CCc1ccc(Cl)cc1)Cn1cncn1 (stereo not drawn)
Output line: inactive

Input line: Any idea what this test logged for CCC[CH2][Sn]([Cl])([CH2]CCC)[CH2]CCC ?
Output line: active

Input line: Write down the call the test reported for this compound. Item: OCCCBr
Output line: inactive

Input line: Given Cc1ccc(N=C=O)cc1N=C=O , state the outcome it received in this test.
Output line: active

Input line: # lookup: test call for CC(O)CCO (stereo not drawn)
Output line: inactive

Input line: Please state the recorded outcome for this compound: c1ccc2c(c1)oc1ccccc12
Output line: inactive

Input line: Which result was noted for this compound in the test: CCCCCCCCOC(=O)c1ccc(C(=O)OCCCCCCCC)c(C(=O)OCCCCCCCC)c1
Output line: inactive

Input line: Hi, sorry to bother you, what did the test record for OCCCl ?
Output line: inactive

Input line: Per the records of this test, what outcome belongs to CO[C@@H]1[C@H](OC(=O)NC(=O)CCl)CC[C@]2(CO2)[C@H]1[C@@]1(C)O[C@@H]1CC=C(C)C ?
Output line: inactive

Input line: Look up the recorded call for CN(C)c1ccc(C(=O)c2ccc(N(C)C)cc2)cc1 in this test.
Output line: active

Input line: Call for entry ClC1=C(Cl)[C@]2(Cl)[C@H]3[C@H]([C@@H]4C=C[C@H]3C4)[C@@]1(Cl)C2(Cl)Cl :
Output line: inactive

Input line: Just curious, what result did CC(C)N(Cc1ccccc1)C(=O)C(C)(C)C get here?
Output line: inactive

Input line: // return assay outcome for C[C@]12C=CC3=C4CCC(=O)C=C4CC[C@H]3[C@@H]1CC[C@@H]2O
Output line: inactive

Input line: Identify the outcome logged in this assay for the compound shown: Nc1ccc(N=Nc2ccccc2)cc1
Output line: active

Input line: Any idea what this test logged for Cn1cc(-c2ccccc2)c(=O)c(-c2cccc(C(F)(F)F)c2)c1 ?
Output line: inactive

Input line: How was Oc1ccc2ccc3cccc4ccc1c2c34 classified in this test?
Output line: active

Input line: In this assay, the call recorded for Cc1cccc(N)c1N was what?
Output line: active
